- System: Staphylococcus aureus
- test-method-notes: Antibacterial activity against tetracycline-resistant Staphylococcus aureus isolate SA158 expressing TetK gene
- Assay type: functional

structure-smiles | MIC [µg/mL]
CN(C)[C@@H]1C(O)=C(C(N)=O)C(=O)[C@@]2(O)C(O)=C3C(=O)c4c(O)c(NC(=O)[C@@H]5CCCCN5C)cc(F)c4C[C@H]3C[C@@H]12 | 1
CN(C)[C@@H]1C(O)=C(C(N)=O)C(=O)[C@@]2(O)C(O)=C3C(=O)c4c(O)c(NC(=O)CNC(C)(C)C)cc(F)c4C[C@H]3C[C@@H]12 | 0.063
CN(C)[C@@H]1C(O)=C(C(N)=O)C(=O)[C@@]2(O)C(O)=C3C(=O)c4c(O)c(NCC(C)(C)C)cc(F)c4C[C@H]3C[C@@H]12 | 0.25
CN(C)[C@@H]1C(O)=C(C(N)=O)C(=O)[C@@]2(O)C(O)=C3C(=O)c4c(O)c(NS(=O)(=O)c5cccs5)cc(F)c4C[C@H]3C[C@@H]12 | 0.5
CN(C)c1ccc(C(=O)Nc2cc(F)c3c(c2O)C(=O)C2=C(O)[C@]4(O)C(=O)C(C(N)=O)=C(O)[C@@H](N(C)C)[C@@H]4C[C@@H]2C3)cc1 | 0.063
CN(C)c1cc(F)c2c(c1O)C(=O)C1=C(O)[C@]3(O)C(=O)C(C(N)=O)=C(O)[C@@H](N(C)C)[C@@H]3C[C@@H]1C2 | 4

###

- System: Staphylococcus aureus
- test-method-notes: Antibacterial activity against tetracycline-resistant Staphylococcus aureus isolate SA158 expressing TetK gene
- Type: functional

structure-smiles | MIC
CN(C)[C@@H]1C(O)=C(C(N)=O)C(=O)[C@@]2(O)C(O)=C3C(=O)c4c(O)c(Nc5ccncn5)cc(F)c4C[C@H]3C[C@@H]12 | 2 mg/L
CN(C)[C@@H]1C(O)=C(C(N)=O)C(=O)[C@@]2(O)C(O)=C3C(=O)c4c(O)c(NC(=O)c5cccn5C)cc(F)c4C[C@H]3C[C@@H]12 | 0.5 mg/L
CN(C)[C@@H]1C(O)=C(C(N)=O)C(=O)[C@@]2(O)C(O)=C3C(=O)c4c(O)c(NC(=O)c5cccnc5)cc(F)c4C[C@H]3C[C@@H]12 | 16 mg/L

###

- System: Staphylococcus aureus
- test-method-notes: Antibacterial activity against tetracycline-resistant Staphylococcus aureus isolate SA158 expressing TetK gene
- Format: functional

structure-smiles | experimental-target | output-unit | MIC
CN(C)[C@@H]1C(O)=C(C(N)=O)C(=O)[C@@]2(O)C(O)=C3C(=O)c4c(O)c(CNCC(C)(C)C)cc(F)c4C[C@H]3C[C@@H]12 | Staphylococcus aureus | mg/L | 2
CNC(=O)Nc1cc(F)c2c(c1O)C(=O)C1=C(O)[C@]3(O)C(=O)C(C(N)=O)=C(O)[C@@H](N(C)C)[C@@H]3C[C@@H]1C2 | Staphylococcus aureus | mg/L | 16
CN(C)[C@@H]1C(O)=C(C(N)=O)C(=O)[C@@]2(O)C(O)=C3C(=O)c4c(O)c(NC(=O)c5cccc(C(F)(F)F)c5)cc(F)c4C[C@H]3C[C@@H]12 | Staphylococcus aureus | mg/L | 0.13
CN(C)c1cccc(C(=O)Nc2cc(F)c3c(c2O)C(=O)C2=C(O)[C@]4(O)C(=O)C(C(N)=O)=C(O)[C@@H](N(C)C)[C@@H]4C[C@@H]2C3)c1 | Staphylococcus aureus | mg/L | 0.13
Cc1cc(C(=O)Nc2cc(F)c3c(c2O)C(=O)C2=C(O)[C@]4(O)C(=O)C(C(N)=O)=C(O)[C@@H](N(C)C)[C@@H]4C[C@@H]2C3)no1 | Staphylococcus aureus | mg/L | 0.5
CN(C)[C@@H]1C(O)=C(C(N)=O)C(=O)[C@@]2(O)C(O)=C3C(=O)c4c(O)c(NS(C)(=O)=O)cc(F)c4C[C@H]3C[C@@H]12 | Staphylococcus aureus | mg/L | 4

###

- System: Staphylococcus aureus
- test-method-notes: Antibacterial activity against methicillin-resistant Staphylococcus aureus VL-137
- Assay type: functional

structure-smiles | output-unit | MIC50
CN(C)[C@@H]1C(O)=C(C(N)=O)C(=O)[C@@]2(O)C(O)=C3C(=O)c4c(O)c(NC(=O)[C@@H]5CCN5C)cc(F)c4C[C@H]3C[C@@H]12 | µg/mL | 0.031
CN(C)[C@@H]1C(O)=C(C(N)=O)C(=O)[C@@]2(O)C(O)=C3C(=O)c4c(O)c(NC(=O)[C@@H]5CCCN5C)cc(F)c4C[C@H]3C[C@@H]12 | µg/mL | 0.031
CC(=O)NC[C@H]1CN(c2ccc(N3CCOCC3)c(F)c2)C(=O)O1 | µg/mL | 2
C[C@H]1COc2c(N3CCN(C)CC3)c(F)cc3c(=O)c(C(=O)O)cn1c23.C[C@H]1COc2c(N3CCN(C)CC3)c(F)cc3c(=O)c(C(=O)O)cn1c23.O | µg/mL | 16

###

Recorded bioavailability for the following compounds
- test-method-notes: Oral bioavailability in human
- Assay type: ADME, organism-based
- test-conditions: in vivo

compound | bioavailability [%]
CN(C)[C@@H]1C(O)=C(C(N)=O)C(=O)[C@@]2(O)C(O)=C3C(=O)c4c(O)cccc4[C@@](C)(O)[C@H]3C[C@@H]12 [TETRACYCLINE] | 50
CN(C)c1cc(CNCC(C)(C)C)c(O)c2c1C[C@H]1C[C@H]3[C@H](N(C)C)C(O)=C(C(N)=O)C(=O)[C@@]3(O)C(O)=C1C2=O [OMADACYCLINE] | 33

###

- Test system: Staphylococcus aureus
- test-method-notes: Antibacterial activity against methicillin-resistant Staphylococcus aureus VL-137
- Format: functional
reported-property: MIC90

compound | reported-property | result
CC(=O)NC[C@H]1CN(c2ccc(N3CCOCC3)c(F)c2)C(=O)O1 [LINEZOLID] | MIC90 | 4 µg/mL
CN(C)[C@@H]1C(O)=C(C(N)=O)C(=O)[C@@]2(O)C(O)=C3C(=O)c4c(O)c(NC(=O)[C@@H]5CCCN5C)cc(F)c4C[C@H]3C[C@@H]12 [TP-271] | MIC90 | 0.13 µg/mL
C[C@H]1COc2c(N3CCN(C)CC3)c(F)cc3c(=O)c(C(=O)O)cn1c23.C[C@H]1COc2c(N3CCN(C)CC3)c(F)cc3c(=O)c(C(=O)O)cn1c23.O [LEVOFLOXACIN] | MIC90 | > 32 µg/mL
CN(C)[C@@H]1C(O)=C(C(N)=O)C(=O)[C@@]2(O)C(O)=C3C(=O)c4c(O)c(NC(=O)[C@@H]5CCN5C)cc(F)c4C[C@H]3C[C@@H]12 | MIC90 | 1 µg/mL

###

- Tested on: Staphylococcus aureus
- test-method-notes: Antibacterial activity against tetracycline-resistant Staphylococcus aureus isolate SA158 expressing TetK gene
- Format: functional
reported-property: MIC (µg/mL)

structure-smiles | experimental-target | output-unit | measured-number
CN(C)[C@@H]1C(O)=C(C(N)=O)C(=O)[C@@]2(O)C(O)=C3C(=O)c4c(O)c(NC(=O)[C@@H]5CCN5C)cc(F)c4C[C@H]3C[C@@H]12 | Staphylococcus aureus | µg/mL | 0.016
CN(C)[C@@H]1C(O)=C(C(N)=O)C(=O)[C@@]2(O)C(O)=C3C(=O)c4c(O)c(NC(=O)c5nccs5)cc(F)c4C[C@H]3C[C@@H]12 | Staphylococcus aureus | µg/mL | 0.063
CN(C)[C@@H]1C(O)=C(C(N)=O)C(=O)[C@@]2(O)C(O)=C3C(=O)c4c(O)c(NC(=O)[C@@H]5C[C@@H](F)CN5C)cc(F)c4C[C@H]3C[C@@H]12 | Staphylococcus aureus | µg/mL | 1
CN(C)[C@@H]1C(O)=C(C(N)=O)C(=O)[C@@]2(O)C(O)=C3C(=O)c4c(O)c(N)cc(F)c4C[C@H]3C[C@@H]12 | Staphylococcus aureus | µg/mL | 2
CC(C)CCNc1cc(F)c2c(c1O)C(=O)C1=C(O)[C@]3(O)C(=O)C(C(N)=O)=C(O)[C@@H](N(C)C)[C@@H]3C[C@@H]1C2 | Staphylococcus aureus | µg/mL | 0.13
CN(C)[C@@H]1C(O)=C(C(N)=O)C(=O)[C@@]2(O)C(O)=C3C(=O)c4c(O)c(NC(=O)c5ccccn5)cc(F)c4C[C@H]3C[C@@H]12 | Staphylococcus aureus | µg/mL | 0.13

###

- test-method-notes: Oral bioavailability in CD1 mouse at 30 mg/kg
- Format: ADME, organism-based
- test-conditions: CD1, mouse, in vivo
A collection of compounds and their measured bioavailability

structure-smiles | output-unit | bioavailability
CN(C)c1cc(CNCC(C)(C)C)c(O)c2c1C[C@H]1C[C@H]3[C@H](N(C)C)C(O)=C(C(N)=O)C(=O)[C@@]3(O)C(O)=C1C2=O | % | 1.5
CN(C)[C@@H]1C(O)=C(C(N)=O)C(=O)[C@@]2(O)C(O)=C3C(=O)c4c(O)cccc4[C@@](C)(O)[C@H]3C[C@@H]12 | % | 6.3
